Assay: Toxicity in HUVEC
Format: cell-based
Conditions: human, HUVEC cells
Measurement Type: IC50 (µM)
Express your answer in µM, writing the number without its unit.

### Prompt Can you share its IC50? I mean this compound: `O=C(Cc1ccc(OCCCn2c3c(c4cccc(Cl)c42)CCNC3)cc1)NO`
### Response 9.64

----------
Tested on: Candida albicans
Assay: Synergistic antifungal activity against Candida albicans 0304103 incubated for 48 hrs in presence of fluconazole by microdilution assay
Format: functional
Give MIC80 for every item shown.
Field format: number, assumed µg/mL, no unit text.

### Prompt Item `Cc1ccc2c(c1)c1c(n2CCCOc2ccc(CC(=O)NO)cc2)CNCC1` has what recorded MIC80?
### Response 4

### Prompt So what's the measured MIC80 for this one? `COc1ccc2c(c1)c1c(n2CCCOc2ccc(CC(=O)NO)cc2)CNCC1`
### Response 8

### Prompt Name the reported MIC80 value associated with the compound `O=C(Cc1ccc(OCCCn2c3c(c4ccc(Br)cc42)CCNC3)cc1)NO`
### Response 2

### Prompt Which value of MIC80 has been reported for `COc1cccc2c3c(n(CCCOc4ccc(CC(=O)NO)cc4)c12)CNCC3` in the records?
### Response 2

### Prompt Need MIC80, item `O=C(Cc1ccc(OCCCn2c3c(c4c(Cl)cccc42)CCNC3)cc1)NO`
### Response 2

### Prompt Look at this compound and give its reported MIC80. `O=C(Cc1ccc(OCCCn2c3c(c4ccc(F)cc42)CCNC3)cc1)NO`
### Response 2

### Prompt Which value of MIC80 has been reported for `O=C(Cc1ccc(OCCCn2c3c(c4cc(Br)ccc42)CCNC3)cc1)NO` in the records?
### Response 2

### Prompt Dear colleague, I am looking for the recorded MIC80 of the following compound: `O=C(Cc1ccc(OCCCn2c3c(c4ccc(Cl)cc42)CCNC3)cc1)NO`
### Response 2

### Prompt // query MIC80 value for entry `O=C(Cc1ccc(OCCCn2c3c(c4cccc(Cl)c42)CCNC3)cc1)NO`
### Response 2

### Prompt Give the measured MIC80 of `O=C(Cc1ccc(OCCCn2c3c(c4c(Br)cccc42)CCNC3)cc1)NO` .
### Response 4

### Prompt Need MIC80, item `O=C(Cc1ccc(OCCCn2c3c(c4ccccc42)CCNC3)cc1)NO`
### Response 4

### Prompt Query (compound): `O=C(Cc1ccc(OCCCn2c3c(c4cc(F)ccc42)CCNC3)cc1)NO` ; field requested: MIC80
### Response 2

----------
Experiment: Toxicity in HUVEC in presence of fluconazole
Format: cell-based
Details: human, HUVEC cells
Measurement Type: pIC50
Keep in mind that pIC50 stands for -log10 of concentration in molar terms.

### Prompt I am curious: what pIC50 value has been reported for `O=C(Cc1ccc(OCCCn2c3c(c4cccc(Cl)c42)CCNC3)cc1)NO` ?
### Response 4.91

----------
Assay: Toxicity in human L02 cells
Assay type: cell-based
Measurement Type: pIC50
# reply with the number alone; pIC50 is -log10 of concentration in mol/L

### Prompt Which pIC50 is reported for this compound? `O=C(Cc1ccc(OCCCn2c3c(c4cccc(Cl)c42)CCNC3)cc1)NO`
### Response 4.94

Ref: ChEMBL document CHEMBL4706641
